target: Cannabinoid receptor 1 (Homo sapiens, UniProt P21554); assay: Displacement of [3H]CP55,940 from human recombinant CB1 receptor expressed in CHO-K1 cells
Sequence (P21554 whole entry): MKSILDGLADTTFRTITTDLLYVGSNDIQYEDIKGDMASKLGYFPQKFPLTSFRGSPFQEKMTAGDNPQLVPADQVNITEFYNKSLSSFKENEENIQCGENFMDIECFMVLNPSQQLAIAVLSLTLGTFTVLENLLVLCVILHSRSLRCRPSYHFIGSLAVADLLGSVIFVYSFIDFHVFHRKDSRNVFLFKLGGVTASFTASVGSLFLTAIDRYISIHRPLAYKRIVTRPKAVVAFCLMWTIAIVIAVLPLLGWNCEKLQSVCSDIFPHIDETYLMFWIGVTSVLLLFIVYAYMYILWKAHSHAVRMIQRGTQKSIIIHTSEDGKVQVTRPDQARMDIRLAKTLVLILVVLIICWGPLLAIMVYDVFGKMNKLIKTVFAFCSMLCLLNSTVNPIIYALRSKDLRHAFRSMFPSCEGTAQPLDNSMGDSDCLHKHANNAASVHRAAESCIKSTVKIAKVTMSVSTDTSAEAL
Collected Ki values appear next to each entry.

Examples from the recorded data:
[
  {
    "Smiles Input": "CCCCC/C=C\\C/C=C\\C/C=C\\C/C=C\\CCCC(=O)O[C@H](CO)COP(=O)(O)O[C@@H]1[C@@H](O)[C@H](O)[C@@H](O)[C@H](O)[C@@H]1O",
    "Measured On": "Cannabinoid receptor 1 (Homo sapiens, UniProt P21554)",
    "Ki": "> 10 µM"
  },
  {
    "Smiles Input": "O=C1/C(=C/c2cccc(Cl)c2)N=C2SCCCN12",
    "Measured On": "Cannabinoid receptor 1 (Homo sapiens, UniProt P21554)",
    "Ki": "> 10 µM"
  },
  {
    "Smiles Input": "O=C1/C(=C/c2cccc(OCc3ccc(Cl)cc3Cl)c2)N=C2SCCCN12",
    "Measured On": "Cannabinoid receptor 1 (Homo sapiens, UniProt P21554)",
    "Ki": "2.09 µM"
  }
]

IN: Query (compound): C/C(=C1/N=C2SCCCCN2C1=O)c1ccccc1 ; field requested: Ki
OUT: > 10 µM

---

biological target: Cannabinoid receptor 2 (Homo sapiens); assay: Displacement of [3H]CP55,940 from human recombinant CB2 receptor expressed in HEK293 cells
Collected Ki values appear next to each entry.

IN: Query (compound): Cc1ccc(C(=O)Oc2cccc(/C=C3\N=C4SCCCCN4C3=O)c2)cc1 ; field requested: Ki
OUT: 2.58 µM

IN: Would you mind doing C/C(=C1/N=C2SCCCCN2C1=O)c1ccccc1 as well?
OUT: > 10 µM

IN: Would you mind doing O=C1/C(=C/c2cccc(OCc3ccc(Cl)cc3)c2)N=C2SCCCN12 as well?
OUT: 4.03 µM

IN: Would you mind doing O=C1/C(=C/c2ccc(Cl)cc2Cl)N=C2SCCCN12 as well?
OUT: > 10 µM

IN: Would you mind doing O=C1N=C2SCCCN2C1(c1ccccc1)c1ccccc1 as well?
OUT: > 10 µM

IN: Would you mind doing O=C1/C(=C/c2c(Cl)cccc2Cl)N=C2SCCCN12 as well?
OUT: > 10 µM

---

biological target: Cannabinoid receptor 2 (Homo sapiens, UniProt P34972); assay: Displacement of [3H]CP55,940 from human recombinant CB2 receptor expressed in HEK293 cells
Sequence (P34972 whole entry): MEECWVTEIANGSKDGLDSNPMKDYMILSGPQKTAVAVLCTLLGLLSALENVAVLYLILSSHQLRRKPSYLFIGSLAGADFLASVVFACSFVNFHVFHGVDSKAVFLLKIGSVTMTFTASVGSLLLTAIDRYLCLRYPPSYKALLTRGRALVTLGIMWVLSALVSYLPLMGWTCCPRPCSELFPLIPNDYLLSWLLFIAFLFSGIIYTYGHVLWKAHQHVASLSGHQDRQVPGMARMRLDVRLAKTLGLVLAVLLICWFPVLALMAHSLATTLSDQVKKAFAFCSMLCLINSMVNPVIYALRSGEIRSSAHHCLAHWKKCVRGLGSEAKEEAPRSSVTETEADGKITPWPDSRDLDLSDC
Measure Name: Ki

[
  {
    "Compound": "O=C1/C(=C/c2cccc(OCc3ccccc3Cl)c2)N=C2SCCCCN12",
    "Result": "0.98 µM"
  },
  {
    "Compound": "O=C1/C(=C/C=C/c2ccccc2)N=C2SCCCN12",
    "Result": "> 10 µM"
  },
  {
    "Compound": "O=C1/C(=C/c2cccc(OCc3ccccc3)c2)N=C2SCCCCN12",
    "Result": "1.81 µM"
  },
  {
    "Compound": "O=C1/C(=C/c2ccccc2)N=C2SCCCN12",
    "Result": "> 10 µM"
  },
  {
    "Compound": "O=C1/C(=C/c2ccc(F)cc2F)N=C2SCCCN12",
    "Result": "> 10 µM"
  }
]

IN: Query (compound): CCOC(=O)C1CN2C(=O)C(c3ccccc3)(c3ccccc3)N=C2S1 (stereo unspecified) ; field requested: Ki
OUT: > 10 µM

IN: Would you mind doing O=C1/C(=C/c2ccc(Br)cc2)N=C2SCCCN12 as well?
OUT: > 10 µM

IN: Would you mind doing O=C1N=C2SCCCCN2C1(c1ccccc1)c1ccccc1 as well?
OUT: > 10 µM

IN: Would you mind doing CN(C)c1ccc(/C=C2\N=C3SCCCN3C2=O)cc1 as well?
OUT: 16.6 µM

IN: Would you mind doing O=C1/C(=C/c2cccc(Cl)c2Cl)N=C2SCCCN12 as well?
OUT: > 10 µM

IN: Would you mind doing CC(C)c1ccc(/C=C2\N=C3SCCCN3C2=O)cc1 as well?
OUT: > 10 µM

---

target: G-protein coupled receptor 55 (Homo sapiens, UniProt Q9Y2T6); experiment: Antagonist activity against human GPR55 expressed in CHO cells assessed as reduction in LPI-induced beta-arrestin recruitment at 10 uM by beta-galactosidase enzyme fragment complementation method; assay type: cell-based
Sequence (Q9Y2T6 whole entry, the tested form may be a part): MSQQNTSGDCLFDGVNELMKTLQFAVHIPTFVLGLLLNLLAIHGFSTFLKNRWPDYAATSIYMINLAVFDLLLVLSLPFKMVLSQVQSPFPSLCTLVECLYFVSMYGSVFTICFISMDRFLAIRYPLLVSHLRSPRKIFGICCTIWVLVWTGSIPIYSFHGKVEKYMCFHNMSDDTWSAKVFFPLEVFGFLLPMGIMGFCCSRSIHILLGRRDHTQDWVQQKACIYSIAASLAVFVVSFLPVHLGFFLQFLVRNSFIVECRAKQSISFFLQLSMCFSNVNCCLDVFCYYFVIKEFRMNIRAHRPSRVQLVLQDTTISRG
Measure Name: inhibition (%)
Provide only the numeric value, understood in %.

Examples from the recorded data:
[
  {
    "Molecule": "O=C(Oc1cccc(/C=C2\\N=C3SCCCN3C2=O)c1)c1ccccc1",
    "Display Unit": "%",
    "inhibition": 7
  },
  {
    "Molecule": "O=C1/C(=C/c2cccc(OCc3cccc(Cl)c3)c2)N=C2SCCCCN12",
    "Display Unit": "%",
    "inhibition": 27
  },
  {
    "Molecule": "O=C1N=C2SCCCCN2C1(c1ccccc1)c1ccccc1",
    "Display Unit": "%",
    "inhibition": 32
  },
  {
    "Molecule": "O=C1/C(=C/c2cccc(OCc3ccc(Cl)cc3Cl)c2)N=C2SCCCCN12",
    "Display Unit": "%",
    "inhibition": 33
  },
  {
    "Molecule": "O=C1/C(=C/c2cccc(OCc3ccccc3Cl)c2)N=C2SCCCN12",
    "Display Unit": "%",
    "inhibition": 45
  }
]

IN: Query (molecule): CCOC(=O)C1CN2C(=O)C(c3ccccc3)(c3ccccc3)N=C2S1 (centres undefined) ; field requested: inhibition
OUT: 10

IN: Would you mind doing O=C1N2CCSC2=NC1(c1ccccc1)c1ccccc1 as well?
OUT: 39

IN: Would you mind doing O=C1N2CCCCSC2=NC1(c1ccccc1)c1ccccc1 as well?
OUT: 6

IN: Would you mind doing COc1ccc(/C=C2\N=C3SCCCN3C2=O)cc1OC as well?
OUT: 12

IN: Would you mind doing O=C1/C(=C/c2ccc(Cl)cc2)N=C2SCCCN12 as well?
OUT: 35

IN: Would you mind doing O=C1/C(=C/c2cccc(OCc3ccccc3Cl)c2)N=C2SCCCCN12 as well?
OUT: 43

IN: Would you mind doing COc1ccc(/C=C2\N=C3SCCCN3C2=O)cc1 as well?
OUT: 16

IN: Would you mind doing O=C1/C(=C/c2ccc([N+](=O)[O-])cc2)N=C2SCCCN12 as well?
OUT: 12

IN: Would you mind doing O=C1/C(=C/c2cccc(OCc3ccccc3)c2)N=C2SCCCN12 as well?
OUT: 0

IN: Would you mind doing O=C1/C(=C/c2cccc(OCc3ccccc3)c2)N=C2SCCCCN12 as well?
OUT: 21

IN: Would you mind doing O=C1/C(=C/c2cccc(Oc3ccccc3)c2)N=C2SCCCCN12 as well?
OUT: 33

IN: Would you mind doing Cc1ccc(C(=O)Oc2cccc(/C=C3\N=C4SCCCCN4C3=O)c2)cc1 as well?
OUT: 32

IN: Would you mind doing COc1ccccc1/C=C1\N=C2SCCCN2C1=O as well?
OUT: 33

---

molecular target: G-protein coupled receptor 55 (Homo sapiens, UniProt Q9Y2T6); assay: Antagonist activity against human GPR55 expressed in CHO cells assessed as reduction in LPI-induced beta-arrestin recruitment by beta-galactosidase enzyme fragment complementation method
pIC50: −log10 of the molar value.
Measure Name: pIC50

[
  {
    "Compound": "O=C1/C(=C/c2cccc(OCc3ccc(Cl)cc3Cl)c2)N=C2SCCCCN12",
    "pIC50": "< 5.00"
  },
  {
    "Compound": "CCOC(=O)C1CN2C(=O)C(c3ccccc3)(c3ccccc3)N=C2S1 (stereo unspecified)",
    "pIC50": "< 5.00"
  },
  {
    "Compound": "O=C1/C(=C/c2cccc(OCc3ccccc3Cl)c2)N=C2SCCCN12",
    "pIC50": "≤ 5.00"
  },
  {
    "Compound": "O=C(Oc1cccc(/C=C2\\N=C3SCCCN3C2=O)c1)c1ccccc1",
    "pIC50": "< 5.00"
  },
  {
    "Compound": "O=C1/C(=C/c2cccc(OCc3ccc(Cl)c(Cl)c3)c2)N=C2SCCCN12",
    "pIC50": 4.93
  }
]

IN: Query (compound): COc1cccc(/C=C2\N=C3SCCCN3C2=O)c1OC ; field requested: pIC50
OUT: 4.79

IN: Would you mind doing O=C1/C(=C/c2cccc(OCc3cccc(Cl)c3)c2)N=C2SCCCCN12 as well?
OUT: < 5.00

IN: Would you mind doing O=C1/C(=C/c2cccc(Oc3ccccc3)c2)N=C2SCCCCN12 as well?
OUT: < 5.00

IN: Would you mind doing CN(C)c1ccc(/C=C2\N=C3SCCCN3C2=O)cc1 as well?
OUT: < 5.00

IN: Would you mind doing O=C(Oc1cccc(/C=C2\N=C3SCCCN3C2=O)c1)c1ccc(Cl)cc1 as well?
OUT: < 5.00

// provenance: ChEMBL document CHEMBL3217528
